Test: NCI Yeast Anticancer Drug Screen. Data for the rad14 strain (AID 159)
Conditions: S. cerevisiae rad14 strain growth inhibition; at 100.0 µM
The panel holds about 79,000 compounds, 15% with a hit somewhere; the sample as a whole holds those more often. Activity calls are given as the source filed them. No stated cut-off is given here; in the data, active means growth inhibition above about 70%; inactive means the rest.
Pick one: active, inactive

Exercise: Please indicate how the test categorized NC(=O)NN=C(CS)CS .
Solution: active

Exercise: Please indicate how the test categorized CCCCCCCCCCCCCC[N+](C)(CC(=O)[O-])Cc1ccccc1 (configuration not stated) .
Solution: active

Exercise: Please indicate how the test categorized CC(C)c1ccccc1NC(=O)/C(Cl)=C(\Cl)C(=O)O .
Solution: active

Exercise: Please indicate how the test categorized Cc1ccc(S/N=C\c2ccccc2O)cc1 .
Solution: inactive

Exercise: Please indicate how the test categorized CCC/C(Cl)=N\OC(=O)Nc1cccc(C(F)(F)F)c1 .
Solution: inactive

Exercise: Please indicate how the test categorized O=c1ssc2ncccc12 .
Solution: active

Exercise: Please indicate how the test categorized O=CNc1ccc2c(c1)C(=O)c1ccccc1-2 .
Solution: active

Origin of the recorded values: PubChem BioAssay (NCI)
